target: T1, LILRB1-ECD-HIS (SinoBiological Cat #: 16014-H02H) (human, UniProt Q8NHL6 24-461); experiment: SPR (Carterra LSA), antibody captured, antigen injected;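 further: kd obtained from kinetic analysis of antibody binding to the antigen, with association and dissociation phases fitted in the instrument software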
T1 construct: Bought protein; also called monomeric antigen LILRB1-ECD-HIS; not shown: His tag
T1 sequence (Q8NHL6 other isoform, or with tags, fused parts or gaps H02H H02H): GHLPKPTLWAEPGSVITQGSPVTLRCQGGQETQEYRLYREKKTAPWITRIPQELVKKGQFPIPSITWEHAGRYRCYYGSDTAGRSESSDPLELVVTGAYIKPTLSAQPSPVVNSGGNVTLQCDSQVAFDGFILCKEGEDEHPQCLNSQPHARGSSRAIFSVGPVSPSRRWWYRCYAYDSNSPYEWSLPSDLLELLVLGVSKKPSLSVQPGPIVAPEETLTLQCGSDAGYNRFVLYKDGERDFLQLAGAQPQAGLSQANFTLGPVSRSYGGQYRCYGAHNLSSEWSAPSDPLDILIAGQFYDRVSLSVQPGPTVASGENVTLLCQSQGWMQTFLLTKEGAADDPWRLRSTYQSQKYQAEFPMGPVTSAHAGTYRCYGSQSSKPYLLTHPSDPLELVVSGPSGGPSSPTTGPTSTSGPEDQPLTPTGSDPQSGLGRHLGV
So I've got a bunch of binders here, and I need their pKd values.
Recall that pKd is obtained by taking minus log10 of the concentration measured in molar.

## Input What does the record list as pKd for #1 (antibody, human IgG1, V domains shown, also called D2M002-001) VH: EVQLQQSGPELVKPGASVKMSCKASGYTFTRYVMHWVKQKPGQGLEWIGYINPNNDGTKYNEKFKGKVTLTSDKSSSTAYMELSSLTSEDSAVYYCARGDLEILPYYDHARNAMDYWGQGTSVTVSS VL: DIVMTQSPASQSASLGESVIITCRASGNIHNYLAWYQQKQGKSPQLLVYNAKTLADGVPSRFSGSGSGTQYSLKINSLQPEDFGTYYCQHFWSSPPTFGGGTKLELK ?
## Output 7.83

## Input Name the recorded pKd for #3 (antibody, human IgG1, V domains shown, also called D2M002-003) VH: QIQLLQSGPELVKPGASVKMSCKASGYTFTRYVMYWVKQKPGQGLEWIGYINPDNDGTKYNEKFKGKATLTSDKSSSTAYMELSSLTSEDSAVYYCARGDLELLPYYDYVRNAMDYWGQGTSVTVSS VL: DIQMTQSPASLSASVGETVTITCRASGNIHNYLAWYQQKQGKSPQLLVYNAKTLADGVPSRFSGSGSGTQYSLKINSLQPEDFGSYYCQHFWSTPPTFGGGTKLEIK .
## Output 7.24

## Input Param item = D2M002-002 (antibody, V domains shown, Hit from immunised mice; also called clone #2; anti-LILRB1/2 clone #2) VH: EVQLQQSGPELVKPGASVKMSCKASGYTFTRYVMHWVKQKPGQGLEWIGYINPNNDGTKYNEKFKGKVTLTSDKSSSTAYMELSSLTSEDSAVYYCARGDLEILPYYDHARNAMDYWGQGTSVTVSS VL: DVQMIQSPASLSASVGETVTITCRASENIYSYLAWYQQKQGKSPQLLVYNAKTLAEGVPSRFSGSGSGTQFSLKINSLQPEDFGSYYCQHFWSTPPTFGGGTKLEIK ; retrieve measured pKd.
## Output 8.01

## Input Fill blank: measured pKd of the binder #28 (antibody, human IgG1, V domains shown, also called D2M002-028) VH: EVQLQQSGAELMKPGASVKISCKATGYTFSSYWIEWVKQRPGHGLEWIGEILPGSGSTNYNEKFKGKATFTADTSSNTAYMQLSSLTSEDSAVYYCARSGAGGYDSGAFAYWGQGTLVTVSS VL: DIVMTQSPASLAVSLGQRATISCRASESVDTYGNSFMHWYQQKPGQPPKLLIYRTSNLESGIPARFSGSGSRTDFTLTINPVEADDVATYYCQQSNEDPWTFGGGTKLEIK is ____.
## Output 9.05

## Input Query (binder): D2M002-044 (antibody, human IgG1, V domains shown, Hit; also called clone #44) VH: EVQLQQSGAELVRPGALVKLSCKGSGFNIKDYYMHWVRQRPEQGLEWIGWIDPENGNTVYAPKFQGKASITSDTSSNIAYLQFSSLTSEDTAVYYCARSRDHGAMDYWGQGTSVTVSS VL: DVQITQSPAIMSASPGEKVTLTCSASSSVSSSNLYWYQQKPGSSPKLWIYSTSNLASGVPARFSGSGFGTSYALTISSMEAEDAASYFCHQWSSYPYTFGGGTKLEIK ; field requested: pKd
## Output 6.00
